The measurements presented in this section are drawn from ChEMBL document CHEMBL1153803.

tested on: Mycobacterium tuberculosis; test: Antimicrobial activity against Mycobacterium tuberculosis H37Rv ATCC 27294 by microplate Almar blue assay; assay type: functional; conditions: Mycobacterium tuberculosis, H37Rv ATCC 27294; read-out: MIC
measured.attribute: MIC (µg/mL)
Supply the numeric figure in µg/mL, leaving out any unit text.

>  <molecule>
Fc1cccc(CCN2CCN([C@@H](Cc3ccccc3)CN3CCCC3CN3CCNC[C@@H]3Cc3ccccc3)C[C@@H]2Cc2ccccc2)c1 (some centres undefined)

>  <endpoint.result>
3.9

$$$$
>  <molecule>
c1ccc(C[C@H]2CNCCN2CC2CCCN2C[C@H](Cc2ccccc2)N2CCN(CCC3CC4CCC3C4)[C@@H](Cc3ccccc3)C2)cc1 (some centres undefined)

>  <endpoint.result>
3.9

$$$$
>  <molecule>
COc1cccc(CCN2CCN([C@@H](Cc3ccccc3)CN3CCCC3CN3CCNC[C@@H]3Cc3ccccc3)C[C@@H]2Cc2ccccc2)c1 (some centres undefined)

>  <endpoint.result>
3.9

$$$$
>  <molecule>
c1ccc(CCN2CCN([C@H](Cc3ccc4ccccc4c3)CN3CCCC3CN3CCNC[C@@H]3Cc3ccccc3)C[C@@H]2Cc2ccccc2)cc1 (some centres undefined)

>  <endpoint.result>
3.9

$$$$

I have this molecule here, CCOc1ccc(CCN2CCN([C@@H](Cc3ccccc3)CN3CCCC3CN3CCNC[C@@H]3Cc3ccccc3)C[C@@H]2Cc2ccccc2)cc1 (some centres undefined) , and I need its recorded MIC.
3.9

What about c1ccc(CCN2CCN([C@@H](CC3CCCCC3)CN3CCCC3CN3CCNC[C@@H]3Cc3ccccc3)C[C@@H]2Cc2ccccc2)cc1 (some centres undefined) ?
2

====

Listed here: items and their measured MIC.
tested on: Mycobacterium tuberculosis; assay: Antimicrobial activity against Mycobacterium tuberculosis H37Rv ATCC 27294 by microplate Almar blue assay; type: functional; settings: Mycobacterium tuberculosis, H37Rv ATCC 27294; read-out: MIC
// return numeric value only (unit: µg/mL, not printed)

Study these solved cases before continuing.
>  <compound>
c1ccc(CCN2CCN([C@@H](Cc3ccccc3)CN3CCCC3CN3CCNC[C@H]3Cc3ccccc3)C[C@@H]2Cc2ccccc2)cc1 (some centres not stated)

>  <study.target>
Mycobacterium tuberculosis

>  <MIC / µg/mL>
3.9

$$$$
>  <compound>
c1ccc(CCN2CCN([C@@H](Cc3ccccc3)CN3CCCC3CN3CCNC[C@@H]3Cc3ccccc3)C[C@H]2CC2CCCCC2)cc1 (some centres not stated)

>  <study.target>
Mycobacterium tuberculosis

>  <MIC / µg/mL>
3.9

$$$$
>  <compound>
c1ccc(C[C@H]2CNCCN2CC2CCCN2C[C@H](Cc2ccccc2)N2CCN(CCCC3CCCC3)[C@@H](Cc3ccccc3)C2)cc1 (some centres not stated)

>  <study.target>
Mycobacterium tuberculosis

>  <MIC / µg/mL>
3.9

$$$$

Name the reported MIC value associated with the compound NC[C@H](Cc1ccccc1)NC[C@@H]1CCCN1C[C@H](Cc1ccccc1)NC[C@H](Cc1ccccc1)NCCC1CC2CCC1C2 (some centres not stated)
3.13

Field entry: CC(CCN1CCN([C@@H](Cc2ccccc2)CN2CCCC2CN2CCNC[C@@H]2Cc2ccccc2)C[C@@H]1Cc1ccccc1)c1ccccc1 (some centres not stated)
3.9

Also check c1ccc(CCN2CCN([C@H](CC3CCCCC3)CN3CCCC3CN3CCNC[C@@H]3Cc3ccccc3)C[C@@H]2Cc2ccccc2)cc1 (some centres not stated)
3.9

What do we get for NC[C@H](Cc1ccccc1)NC[C@@H]1CCCN1C[C@H](Cc1ccccc1)NC[C@H](Cc1ccccc1)NCC1CCCC1 ?
6.25
